- Target Or Test System: full length recombinant Pim-3 protein (Homo sapiens)
- Construct: by full length recombinant Pim-1, Pim-2, or Pim-3 protein
- Procedure Summary: Pim-3 enzyme assay (HTRF, phosphorylation of biotinylated-BAD (S112) peptide)
- Test Settings: read-out: Pim3 IC50
pIC50: −log10 of the molar value.
Observation Type: pIC50

Observe how each entry below is paired with its result.
Reported pIC50 for CNc1cncc(-c2n[nH]c3ccc(-c4c(F)cccc4F)cc23)n1 [Example 179] : what is it?
6.91

What value of pIC50 has been recorded for this entry: O=C(NC1CC1)c1ccc(F)c(-c2ccc3[nH]nc(-c4cncc(O[C@@H]5CCCNC5)n4)c3c2)c1 [Example 139]
7.92

Return reported pIC50; argument: Fc1cccc(F)c1-c1ccc2[nH]cc(-c3nccc(N[C@@H]4CCCNC4)n3)c2c1 [Example 24]
7.64

a = Fc1cccc(F)c1-c1ccc2[nH]cc(-c3cncc(NC4CCCNC4)c3)c2n1 (stereo not shown) [Example 33]
b = Nc1cccc(-c2ccc3[nH]nc(-c4cncc(N5CCC(N)CC5)n4)c3c2)c1 [Example 81]
c = Fc1cccc(F)c1-c1ccc2[nH]nc(-c3cncc(OC4CCNC4)n3)c2c1 (stereo not shown) [Example 187]
Hello, I need these entries ordered by pIC50, highest reading first. Thanks! Provide the ranking by listing each label in its place in the requested order.
b, c, a
(b: 8.52, c: 7.66, a: 7.16)

a = O=C1CN(c2cncc(-c3c[nH]c4ccc(-c5c(F)cccc5F)cc34)n2)CCN1 [Example 204]
b = CC(C)Oc1cncc(-c2ccc3[nH]cc(-c4ccnc(N)c4)c3c2)n1 [Example 28]
c = CC(C)Oc1cc(-c2ccc3[nH]nc(-c4cncc(O[C@@H]5CCCNC5)n4)c3c2)ccn1 [Example 143]
d = c1cc(C2CC2)nc(-c2ccc3[nH]nc(-c4cncc(O[C@@H]5CCCNC5)n4)c3c2)n1 [Example 127]
e = c1cc2[nH]nc(-c3cncc(O[C@@H]4CCCNC4)n3)c2cc1-c1cncc(NC2CC2)n1 [Example 158]
Would you mind ranking these molecules by ascending pIC50? Thanks in advance for listing the labels in the requested order.
a, c, b, d, e

P = CN1CCOc2cc(-c3ccc4[nH]nc(-c5cncc(O[C@@H]6CCCNC6)n5)c4c3)ccc21 [Example 123]
Q = COc1cnc(-c2c[nH]c3ccc(-c4cncc(OC(C)C)n4)cc23)cn1 [Example 222]
R = CC(C)Oc1cncc(-c2ccc3[nH]cc(-c4cncc(N5CCOCC5)n4)c3c2)n1 [Example 225]
Returns the items ordered by pIC50, from maximum to minimum. Labels, ranked as asked.
P, R, Q
(P: 8.22, R: 6.86, Q: 6.35)
